// provenance: the RNAGym collection of RNA variant scans (doi:10.1126/science.aae0568)

B1: tRNA (parent)
chain: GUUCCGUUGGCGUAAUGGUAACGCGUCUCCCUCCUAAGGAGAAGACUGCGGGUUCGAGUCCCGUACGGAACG

Variants of: B1
Test: yeast fitness relative to wild type (ratio to wild type); higher = fitter; tRNA-Arg(CCU), competitive growth, 37 C, YPD
Variants at the floor of the assay were thinned out.
Give measured yeast fitness for each item. Keep answers brief.
Reply: number alone, nothing else.

Entry under test: A40U G63C . Its yeast fitness was 0.729

Reported yeast fitness for A14C A20G C27U U64A G67A was 0.566

Lab note: measured yeast fitness of U3C C27U U35C was 0.626

Lab note: measured yeast fitness of C22G C49G was 0.664

Please fill in: yeast fitness reported for C4U G25C = 0.999

GET /value?item= U3C A20U G68U A69G &field=yeast fitness returns 0.99

yeast fitness recorded for this variant, G10C C33A C62A , is 0.652

# yeast fitness (variant: C31G C34G A57C ) is 0.685

Given item C55A C66U , the value recorded as its yeast fitness is 0.694

For this variant ( A69U ), measured yeast fitness is 1.04

Lookup result for A21G C22U G63A ; measured yeast fitness: 0.572

response.value for C49U U54C A70C (field: yeast fitness) = 0.617

get_value(item= C5G U35A , readout=yeast fitness) returns 0.615

Lookup result for C11G G38C C49A ; measured yeast fitness: 0.583

// yeast fitness lookup, variant = U59A C62U , result: 0.922

Reported yeast fitness for U32C G41C was 0.931

// recorded yeast fitness for U16C C46U A69C : 0.783

Value of yeast fitness reported for the variant U28A A45G is 0.762

Query C11G A14C C24G A36C G68A yields yeast fitness of 0.584

According to the records, this variant U54A A65U displays yeast fitness of 0.618

yeast fitness recorded for this variant, A14C C24U A36G , is 0.591

Query G25A A70G yields yeast fitness of 1.04

Sure, the documented yeast fitness for C22U A36U is 0.591

According to the records, this variant A15C A42G displays yeast fitness of 0.76

yeast fitness reading for C30A G51C : 0.508

Lab note: C5A U19C gave yeast fitness of 1.08

Documented yeast fitness of C24U U54C : 0.812

Value of yeast fitness reported for the variant A15U U35A A43U C46U is 0.695

For this variant ( C61U C66G ), measured yeast fitness is 0.706

Lab note: G10A U35G A37U gave yeast fitness of 0.551

get_value(item= G38C A69U A70C , readout=yeast fitness) returns 0.557

The reported yeast fitness of the variant A43G U64G was 0.64

Form: variant = U13A C49A ; yeast fitness = 0.654

Value of measured yeast fitness for the entry U7C U59C : 0.846

Reported yeast fitness ( U16C A21U C31G ) = 0.537

The variant listed as A42C C46G has a reported yeast fitness of 0.753

Recorded yeast fitness (variant C4U C31U A40U A69U ): 0.625

The recorded yeast fitness for entry A37C G52A U53A equals 0.566

Entry U13G C29U G48A G56A — recorded yeast fitness = 0.55

// recorded yeast fitness for C34U G39C G50A : 0.557
